- Tgt: OCT1 (Homo sapiens, UniProt O15245)
- Construct: expressed in transfected cells; host or cells: HEK293
- Sequence (O15245 1-554): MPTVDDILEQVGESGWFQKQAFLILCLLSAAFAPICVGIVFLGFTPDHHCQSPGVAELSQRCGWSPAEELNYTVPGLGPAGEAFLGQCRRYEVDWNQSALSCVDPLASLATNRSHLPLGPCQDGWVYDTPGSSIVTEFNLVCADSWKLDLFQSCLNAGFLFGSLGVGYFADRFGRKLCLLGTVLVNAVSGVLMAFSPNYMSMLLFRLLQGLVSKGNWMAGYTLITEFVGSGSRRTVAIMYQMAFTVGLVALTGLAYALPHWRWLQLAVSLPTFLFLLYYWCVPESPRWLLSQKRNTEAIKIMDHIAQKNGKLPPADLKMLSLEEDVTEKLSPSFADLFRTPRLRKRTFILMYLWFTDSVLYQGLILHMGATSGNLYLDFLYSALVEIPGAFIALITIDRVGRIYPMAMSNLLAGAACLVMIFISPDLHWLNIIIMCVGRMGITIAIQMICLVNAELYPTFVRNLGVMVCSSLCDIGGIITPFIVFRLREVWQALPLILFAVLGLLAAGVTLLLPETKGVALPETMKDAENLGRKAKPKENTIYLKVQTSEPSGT
- Experimental details: Transporter inhibition using transfected HEK293 cells
- Assay type: in vitro ADME
- Condition description: IC50, [14C]Metformin (10 µM)
Reported IC50 values follow for various compounds
Metric: IC50 (µM)

smiles_structure=COc1cccc2[nH]c(C(=O)N[C@@H](CC(C)C)C(=O)N[C@@H](C[C@@H]3CCNC3=O)C(=O)COP(=O)(O)O)cc12 tgt="OCT1 (Homo sapiens, UniProt O15245)" metric=IC50 value_relation_sign=> measured=300
smiles_structure=COc1cccc2[nH]c(C(=O)N[C@@H](CC(C)C)C(=O)N[C@@H](C[C@@H]3CCNC3=O)C(=O)CO)cc12 tgt="OCT1 (Homo sapiens, UniProt O15245)" metric=IC50 value_relation_sign== measured=36.3

----------
- Tgt: CYP2D6 (Homo sapiens, UniProt P10635)
- Sequence (P10635 whole entry): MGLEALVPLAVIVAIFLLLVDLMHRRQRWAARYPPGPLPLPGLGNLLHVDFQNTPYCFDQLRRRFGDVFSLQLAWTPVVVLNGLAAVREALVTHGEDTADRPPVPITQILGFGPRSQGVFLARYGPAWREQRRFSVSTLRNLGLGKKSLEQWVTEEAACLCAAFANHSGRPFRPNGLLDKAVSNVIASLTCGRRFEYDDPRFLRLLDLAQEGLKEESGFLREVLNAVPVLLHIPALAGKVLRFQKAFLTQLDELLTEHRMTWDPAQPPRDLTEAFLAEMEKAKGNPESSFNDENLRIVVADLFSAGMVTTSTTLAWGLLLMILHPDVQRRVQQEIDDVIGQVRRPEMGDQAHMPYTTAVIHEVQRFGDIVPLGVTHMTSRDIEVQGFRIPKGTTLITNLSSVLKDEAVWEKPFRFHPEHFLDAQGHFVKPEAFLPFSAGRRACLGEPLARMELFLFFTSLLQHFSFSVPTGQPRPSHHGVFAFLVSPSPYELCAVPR
- Experimental details: Reversible CYP inhibition in human liver microsomes
- Condition description: human, microsomes, pH 7.4, Percent of Control Activity, CYP 2D6, 43.8 µM, Zero-Minute Preincubation
Metric: activity at 43.8 µM (%)

smiles_structure=COc1cccc2[nH]c(C(=O)N[C@@H](CC(C)C)C(=O)N[C@@H](C[C@@H]3CCNC3=O)C(=O)CO)cc12 metric="activity at 43.8 µM" measured=101

----------
- Tgt: CYP1A2 (Homo sapiens)
- Sequence (P05177 1-516): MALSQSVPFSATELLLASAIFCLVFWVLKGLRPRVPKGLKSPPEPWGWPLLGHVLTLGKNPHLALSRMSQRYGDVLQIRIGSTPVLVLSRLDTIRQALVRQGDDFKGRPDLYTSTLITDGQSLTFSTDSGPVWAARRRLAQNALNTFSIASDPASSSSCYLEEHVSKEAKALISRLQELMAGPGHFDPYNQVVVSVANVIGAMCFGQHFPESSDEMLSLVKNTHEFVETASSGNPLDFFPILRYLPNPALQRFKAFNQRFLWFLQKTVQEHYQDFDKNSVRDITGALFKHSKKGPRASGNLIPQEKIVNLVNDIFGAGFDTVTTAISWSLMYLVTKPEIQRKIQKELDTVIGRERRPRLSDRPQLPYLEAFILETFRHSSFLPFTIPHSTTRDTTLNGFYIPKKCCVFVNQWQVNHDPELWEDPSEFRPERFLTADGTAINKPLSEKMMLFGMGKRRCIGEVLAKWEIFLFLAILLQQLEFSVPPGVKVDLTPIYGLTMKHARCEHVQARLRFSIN
- Experimental details: Reversible CYP inhibition in human liver microsomes
- Condition description: human, microsomes, pH 7.4, Percent of Control Activity, CYP 1A2, 0.158 µM, Zero-Minute Preincubation
Metric: activity at 0.158 µM (%)

smiles_structure=COc1cccc2[nH]c(C(=O)N[C@@H](CC(C)C)C(=O)N[C@@H](C[C@@H]3CCNC3=O)C(=O)COP(=O)(O)O)cc12 measured=96.4
